We begin with a simple list: items and their reported abundance fitness.
B1: Homeobox protein cut-like 2, residues 895 to 963; numbered along this chain, O14529 (parent)
chain: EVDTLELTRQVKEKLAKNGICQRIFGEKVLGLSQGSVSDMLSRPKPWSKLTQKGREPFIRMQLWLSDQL

variants of: B1; assay: abundance fitness (aPCA) (normalised: wild type 0, dead -1); higher = more abundant; growth selection in yeast, the domain comes from the species named; conditions: Homo sapiens
endpoint-name: abundance fitness

mutant_id=D3V endpoint_name="abundance fitness" reported=-0.42
mutant_id=W47L endpoint_name="abundance fitness" reported=-0.488
mutant_id=P46N endpoint_name="abundance fitness" reported=-0.223
mutant_id=L69K endpoint_name="abundance fitness" reported=-0.041
mutant_id=R55K endpoint_name="abundance fitness" reported=0.052
mutant_id=Q62C endpoint_name="abundance fitness" reported=-0.263
mutant_id=L5T endpoint_name="abundance fitness" reported=0.015
mutant_id=K17Q endpoint_name="abundance fitness" reported=0
mutant_id=R60V endpoint_name="abundance fitness" reported=-0.863
mutant_id=E6Y endpoint_name="abundance fitness" reported=-0.158
mutant_id=T51I endpoint_name="abundance fitness" reported=-0.007
